system-name: LXR β LBD protein (Homo sapiens (Human), UniProt P55055)
Sequence (P55055 222-460 limits assumed): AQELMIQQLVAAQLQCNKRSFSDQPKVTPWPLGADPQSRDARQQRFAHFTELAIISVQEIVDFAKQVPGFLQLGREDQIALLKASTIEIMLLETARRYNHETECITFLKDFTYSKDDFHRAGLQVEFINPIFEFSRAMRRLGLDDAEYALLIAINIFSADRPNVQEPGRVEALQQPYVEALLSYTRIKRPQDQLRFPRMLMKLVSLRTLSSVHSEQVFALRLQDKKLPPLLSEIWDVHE
experiment-summary: biochemical
Format: binding
conditions: read-out: LXRβ Binding Ki
Give Ki for every item shown.
Numbers only, in nM.

Below are worked cases with known answers.
>  <molecule>
CC(C)[C@@H]1CN(c2cccc(S(C)(=O)=O)c2)CCN1c1ccc(C(C)(F)F)cn1

>  <Ki / nM>
73

$$$$
>  <molecule>
CC(C)[C@H]1CN(c2cccc(S(C)(=O)=O)c2)CCN1C[C@H]1CC[C@H](C(F)(F)F)OC1 (single isomer, unassigned)

>  <Ki / nM>
46

$$$$
>  <molecule>
CC(C)[C@@H]1CN(c2ccc(F)c(S(C)(=O)=O)c2)CCN1c1nccc(OCC(F)(F)F)n1

>  <Ki / nM>
67

$$$$

Asked: Under LXR β LBD protein (Homo sapiens (Human), UniProt P55055): Ki value of COC(=O)c1cnc(N2CCN(c3ccc(F)c(S(C)(=O)=O)c3)C[C@H]2C(C)C)nc1 ?
Given back: 285

* * *

system-name: Gal4 DNA binding domain fused to the LBD of LXRβ in HEK293 cells (Homo sapiens (Human))
Sequence (P55055 222-460 limits assumed): as above
experiment-summary: cell-based
measurement-type: Cell LXRβ efficacy

>  <molecule>
CS(=O)(=O)c1cccc(N2CCN(Cc3ccc(OC(F)(F)F)cc3)[C@H](c3ccccc3)C2)c1 (single isomer, unassigned) [46-22]

>  <result>
2095 (9) %

$$$$

List Cell LXRβ efficacy for every entry below, keeping the order given.
1. CC(C)[C@@H]1CN(c2ccc(F)c(S(C)(=O)=O)c2)CCN1c1ncc(CN)c(C(F)(F)F)n1 [15-2]
2. CC(C)[C@@H]1CN(c2ccc(F)c(S(C)(=O)=O)c2Cl)CCN1c1ncc(Cl)c(C2CC2)n1 [Cpd No 22-2]
3. CC(C)[C@@H]1CN(c2ccc(F)c(S(C)(=O)=O)c2)CCN1c1cnc(C(F)(F)F)cn1 [Cpd No 7-44]
4. C[C@H](c1ccc(C(F)(F)F)cc1)N1CCN(c2cccc(S(C)(=O)=O)c2)C[C@@H]1c1ccccc1 (single isomer, unassigned) [46-18]
5. CC(C)[C@@H]1CN(c2cccc(S(C)(=O)=O)c2)CCN1c1ncc(C2CC2)cn1 [Cpd No 7-5]
6. CC(C)[C@@H]1CN(c2ccc(F)c(S(C)(=O)=O)c2)CCN1c1ncc(C(N)=O)c(C(F)(F)F)n1 [Cpd No 17-2]
7. CC(C)[C@H]1CN(c2ccc(CO)c(S(C)(=O)=O)c2)CCN1C[C@H]1CC[C@@H](C(F)(F)F)OC1 [Cpd No 49-1]
8. CC(C)(O)[C@@H]1CN(c2cccc(S(C)(=O)=O)c2)CCN1c1nccc(C(F)(F)F)n1 [7-24]

Given back:
["3001 (13) %", "750 (10) %", "19 (118) %", "1434 (31) %", "93 (32) %", "91 (10) %", "110 (94) %", "275 (37) %"]

* * *

system-name: LXR α LBD protein (Homo sapiens (Human))
Sequence (Q13133 209-447): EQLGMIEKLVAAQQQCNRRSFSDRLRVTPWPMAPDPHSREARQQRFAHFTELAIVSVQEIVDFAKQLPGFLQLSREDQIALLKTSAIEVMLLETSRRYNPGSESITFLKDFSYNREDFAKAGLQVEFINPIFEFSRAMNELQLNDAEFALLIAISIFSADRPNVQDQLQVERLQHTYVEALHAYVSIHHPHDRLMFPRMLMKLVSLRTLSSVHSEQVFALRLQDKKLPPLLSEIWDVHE
experiment-summary: Human LXRα coactivator recruitment FRET assay, agonist mode
Format: biochemical
conditions: agonist mode
measurement-type: FRET LXRα efficacy
Hey, just the number and the unit after it is fine.

>  <molecule>
CS(=O)(=O)c1cccc(N2CCN(C[C@H]3CC[C@@H](C(F)(F)F)CC3)[C@H](c3ccccc3)C2)c1 (single isomer, unassigned)

>  <FRET LXRα efficacy>
55%

$$$$
>  <molecule>
CC(C)[C@@H]1CN(c2cccc(S(N)(=O)=O)c2)CCN1c1nccc(C(F)(F)F)n1

>  <FRET LXRα efficacy>
97%

$$$$

Asked: Could you share what FRET LXRα efficacy was measured for C[C@]1(c2ccccc2)CN(c2cccc(S(C)(=O)=O)c2)CCN1Cc1ccc(C(F)(F)F)c(Cl)c1 (single isomer, unassigned) , tested on LXR α LBD protein (Homo sapiens (Human))?
Given back: 40%
